Items are presented alongside their recorded IC50.
- Test system: 931267-113-T-J1-PDC multicell spheroid viability;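 note: viability read 7 days after compound addition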
- assay-comment: Anticancer human tumor 931267-113-T-J1-PDC patient-derived colon adenocarcinoma cell line growth inhibition [PI3K]
- condition-parameters: curve of first compound; second compound 0.00316 µM
Please give a number only; it is taken to be in µM.

Solved cases below.
{"molecule": "Cn1cnc2c(F)c(Nc3ccc(Br)cc3Cl)c(C(=O)NOCCO)cc21 + COc1c(OCCCN2CCOCC2)ccc2c3n(c(=NC(=O)c4cnc(N)nc4)nc12)CCN3", "system-name": "931267-113-T-J1-PDC multicell spheroid viability", "measured-quantity": "IC50", "data-value": 0.103}
{"molecule": "CC(C)n1nc(-c2ccc3oc(N)nc3c2)c2c(N)ncnc21 + CC(Nc1ccc2c(c1)OCCn1cc(N3C(=O)OCC3C(F)F)nc1-2)C(N)=O", "system-name": "931267-113-T-J1-PDC multicell spheroid viability", "measured-quantity": "IC50", "data-value": 0.0801}

Next molecule, please.
query: State the measured IC50 (931267-113-T-J1-PDC multicell spheroid viability) of CCCS(=O)(=O)Nc1ccc(F)c(C(=O)c2c[nH]c3ncc(-c4ccc(Cl)cc4)cc23)c1F + CC(Nc1ccc2c(c1)OCCn1cc(N3C(=O)OCC3C(F)F)nc1-2)C(N)=O
result: 6.11
